# system_name: Potassium voltage-gated channel subfamily KQT member 2 (Rattus norvegicus) (UniProt O88943)
# Sequence (O88943 whole entry, looked up): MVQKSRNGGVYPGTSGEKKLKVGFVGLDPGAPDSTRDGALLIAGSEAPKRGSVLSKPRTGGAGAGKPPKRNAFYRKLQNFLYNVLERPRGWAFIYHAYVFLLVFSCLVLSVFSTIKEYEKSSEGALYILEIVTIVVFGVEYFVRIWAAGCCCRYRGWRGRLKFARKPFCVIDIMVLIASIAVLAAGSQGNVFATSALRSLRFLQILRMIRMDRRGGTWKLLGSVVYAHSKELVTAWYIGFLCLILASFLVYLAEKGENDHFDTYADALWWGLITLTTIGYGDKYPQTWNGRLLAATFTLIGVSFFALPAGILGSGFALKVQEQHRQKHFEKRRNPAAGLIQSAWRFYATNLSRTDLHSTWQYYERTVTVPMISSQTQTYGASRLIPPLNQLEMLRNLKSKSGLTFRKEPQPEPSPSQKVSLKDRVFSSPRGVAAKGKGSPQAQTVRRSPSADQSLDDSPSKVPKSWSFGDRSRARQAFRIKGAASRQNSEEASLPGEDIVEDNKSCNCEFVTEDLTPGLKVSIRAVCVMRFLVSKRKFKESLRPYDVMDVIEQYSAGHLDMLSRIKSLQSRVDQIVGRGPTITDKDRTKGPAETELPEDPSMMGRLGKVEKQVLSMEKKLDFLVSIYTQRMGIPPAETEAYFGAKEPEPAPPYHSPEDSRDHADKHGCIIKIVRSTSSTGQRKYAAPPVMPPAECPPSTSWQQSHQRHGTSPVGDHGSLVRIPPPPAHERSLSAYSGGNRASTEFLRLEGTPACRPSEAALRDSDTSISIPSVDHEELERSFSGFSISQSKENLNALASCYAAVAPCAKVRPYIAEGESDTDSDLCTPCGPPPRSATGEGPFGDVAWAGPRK
# assay_comment: rat KCNQ2 channel potentiation, selectivity assay for KCNQ1 potentiator project, KCNQ2-CHO-K1 cells (AID 493009);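 further: assay conditions were tuned for KCNQ1 rather than KCNQ2 modulators; signal is max minus min fluorescence divided by baseline after thallium stimulus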
# measurement_parameters: FluxOR thallium flux fluorescence, at 10 µM, scaled: buffer 0, activator control 100
The source made the active and inactive calls.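 How the source made its calls: active means mean duplicate potentiation above the buffer control mean plus 5 SD of buffer wells; inactive means the rest.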
Labels: active, inactive

> print(dat)
                                    compound  classification
 1  CCOc1ccc(NC(=O)Cn2nnc(-c3ccccc3NC(=O)c3cccs3)n2)cc1        inactive
 2  O=C(CCC(=O)c1ccc(F)cc1)Nc1cc(Cl)cc(Cl)c1        inactive
 3    CCN1CCN(c2ccc(S(=O)(=O)N3CCCC3)cn2)CC1        inactive
 4  COc1cccc(C(=O)NC(=S)N2c3ccccc3CC2C)c1OC (stereo unspecified)        inactive
 5  CC1(C)Cc2c(sc(/N=C/N3CCCCCC3)c2C#N)C(C)(C)N1        inactive
 6  CCCC(=O)Nc1ccc(S(=O)(=O)N2CCC(c3nc4ccccc4[nH]3)CC2)cc1        inactive
 7          COc1ccc(CC(=O)c2ccccc2C(=O)O)cc1        inactive
 8  O=c1c2cc(Br)ccc2nc(-c2cccc(C(F)(F)F)c2)n1O          active
 9  CN(C)/C=N/S(=O)(=O)c1cccn1-c1ncc(C(F)(F)F)cc1Cl        inactive
10  C=CCn1c(SCN2C(=O)c3ccccc3C2=O)nc2ccc(Cl)cc2c1=O        inactive
11     CSc1nc(C)c2c(n1)N(c1ccc(C(C)C)cc1)CC2        inactive

Data credit: PubChem BioAssay
